ASSAYED SYSTEM: α-Glucosidase (EC 3.2.1.20) from Saccharomyces cerevisiae (Saccharomyces cerevisiae, UniProt P53341)
Construct: purchased Sigma Chemical Co. (St. Louis, MO, USA)
Sequence (P53341 whole entry): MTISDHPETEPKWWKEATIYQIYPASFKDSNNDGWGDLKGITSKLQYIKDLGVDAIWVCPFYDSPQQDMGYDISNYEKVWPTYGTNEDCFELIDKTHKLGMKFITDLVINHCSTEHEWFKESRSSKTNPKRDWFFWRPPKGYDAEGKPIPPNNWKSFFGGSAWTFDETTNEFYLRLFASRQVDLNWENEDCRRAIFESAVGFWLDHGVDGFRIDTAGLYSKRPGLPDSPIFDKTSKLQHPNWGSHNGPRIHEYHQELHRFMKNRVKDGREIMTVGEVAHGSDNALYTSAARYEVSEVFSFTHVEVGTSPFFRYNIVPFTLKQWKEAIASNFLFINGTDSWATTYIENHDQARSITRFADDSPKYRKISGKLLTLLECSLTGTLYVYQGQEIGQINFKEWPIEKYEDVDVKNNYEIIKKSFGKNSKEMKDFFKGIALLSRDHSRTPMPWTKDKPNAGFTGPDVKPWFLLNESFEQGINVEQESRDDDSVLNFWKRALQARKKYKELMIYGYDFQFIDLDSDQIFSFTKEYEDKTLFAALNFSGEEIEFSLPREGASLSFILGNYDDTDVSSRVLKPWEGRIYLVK
EXPERIMENTAL DETAILS: biochemical
Assay type: biochemical
CONDITION LABEL: read-out: Inhibition (I %)
ASSAY METRIC: inhibition at 50 µM (%)

compound="CCCCCCCCCCCCCCCCCCC(=O)OC1CCC2(C)C(=CCC3C2CCC2(C)C(C(C)CCC(CC)C(C)C)CCC32)C1 (stereo not shown)" reading=67.7
compound="CC(=CCCC(C)C1CCC2(C)C3CCC4C(C)(C)C(O)CCC45CC35CCC12C)C(=O)O (stereo not shown)" reading=15.9
compound="C[C@H]1O[C@H](O[C@H]2[C@H](O)[C@@H](O)[C@@H](O[C@H]3[C@H](O)[C@@H](O)C(O)O[C@@H]3CO)O[C@@H]2CO)[C@H](O)[C@@H](O)[C@@H]1N[C@H]1C=C(CO)[C@@H](O)[C@H](O)[C@H]1O (stereo partly shown) [Acarbose, reference compound]" reading=9.8
compound=CCCCCCCCCCCCCCCC(=O)OC[C@H]1O[C@@H](O[C@H]2CC[C@@]3(C)C(=CC[C@H]4[C@@H]5CC[C@H]([C@H](C)CC[C@@H](CC)C(C)C)[C@@]5(C)CC[C@@H]43)C2)[C@H](O)[C@@H](O)[C@@H]1O reading=75.9

---

Parameter: inhibition at 10 µM. Scope: all listed entries.
ASSAYED SYSTEM: α-Glucosidase (EC 3.2.1.20) from Saccharomyces cerevisiae (Saccharomyces cerevisiae, UniProt P53341)
Construct: purchased Sigma Chemical Co. (St. Louis, MO, USA)
EXPERIMENTAL DETAILS: biochemical
Type: biochemical
CONDITION LABEL: read-out: Inhibition (I %)
ASSAY METRIC: inhibition at 10 µM (%)

compound="CCCCCCCCCCCCCCCC(=O)OC[C@H]1O[C@@H](O[C@H]2CC[C@@]3(C)C(=CC[C@H]4[C@@H]5CC[C@H]([C@H](C)CC[C@@H](CC)C(C)C)[C@@]5(C)CC[C@@H]43)C2)[C@H](O)[C@@H](O)[C@@H]1O [Compound 5]" reading=32.1
compound="CC(=CCCC(C)C1CCC2(C)C3CCC4C(C)(C)C(=O)CCC45CC35CCC12C)C(=O)O (stereo not shown) [Compound 8, ambonic acid]" reading=87.5
compound="CCC(CCC(C)C1CCC2C3CC=C4CC(OC(=O)CCCCCCCC(=O)O)CCC4(C)C3CCC12C)C(C)C (stereo not drawn) [Compound 2, 3β-(8-carboxyoctanoyl)sitosterol]" reading=93.1
compound="CCCCCCCCCCCCCCCCCCC(=O)OC1CCC2(C)C(=CCC3C2CCC2(C)C(C(C)CCC(CC)C(C)C)CCC32)C1 (stereo not drawn) [Compound 1, 3β-nonadecanoylsitosterol]" reading=24.4

---

ASSAYED SYSTEM: α-Glucosidase (EC 3.2.1.20) from Saccharomyces cerevisiae (Saccharomyces cerevisiae, UniProt P53341)
Construct: purchased Sigma Chemical Co. (St. Louis, MO, USA)
EXPERIMENTAL DETAILS: biochemical
Assay type: biochemical
CONDITION LABEL: read-out: Inhibition (I %)
ASSAY METRIC: inhibition at 100 µM (%)

compound=CCCCCCCCCCCCCCCC(=O)OC[C@H]1O[C@@H](O[C@H]2CC[C@@]3(C)C(=CC[C@H]4[C@@H]5CC[C@H]([C@H](C)CC[C@@H](CC)C(C)C)[C@@]5(C)CC[C@@H]43)C2)[C@H](O)[C@@H](O)[C@@H]1O reading=90.9
compound="CCCCCCCCCCCCCCCCCCC(=O)OC1CCC2(C)C(=CCC3C2CCC2(C)C(C(C)CCC(CC)C(C)C)CCC32)C1 (stereo not shown)" reading=91.8
compound="C[C@H]1O[C@H](O[C@H]2[C@H](O)[C@@H](O)[C@@H](O[C@H]3[C@H](O)[C@@H](O)C(O)O[C@@H]3CO)O[C@@H]2CO)[C@H](O)[C@@H](O)[C@@H]1N[C@H]1C=C(CO)[C@@H](O)[C@H](O)[C@H]1O (stereo partly shown) [Acarbose, reference compound]" reading=21.2
compound="CC(=CCCC(C)C1CCC2(C)C3CCC4C(C)(C)C(O)CCC45CC35CCC12C)C(=O)O (stereo not shown)" reading=32.2
